target: MCL-1 (Homo sapiens (Human), UniProt Q07820, K194A/K197A/R201A); assay: Protein-protein interaction assay MCL-1/Noxa BH3 peptide (MCL-1 assay, TR-FRET); format: binding; details: MBP-MCL-1 / Noxa BH3 peptide, median
Sequence (Q07820 whole entry K194A/K197A/R201A, looked up): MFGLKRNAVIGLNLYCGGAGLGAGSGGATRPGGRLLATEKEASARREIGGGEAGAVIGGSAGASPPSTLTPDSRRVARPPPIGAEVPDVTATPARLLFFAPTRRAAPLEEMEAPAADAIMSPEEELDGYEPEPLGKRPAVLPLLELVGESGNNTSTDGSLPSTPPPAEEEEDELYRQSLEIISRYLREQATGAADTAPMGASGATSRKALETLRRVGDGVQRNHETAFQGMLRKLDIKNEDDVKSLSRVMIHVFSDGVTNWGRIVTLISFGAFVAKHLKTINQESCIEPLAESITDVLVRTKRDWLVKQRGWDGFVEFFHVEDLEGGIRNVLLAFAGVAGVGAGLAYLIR
value.kind: log10 of IC50 (log10 of the value in nM)
Use the decimal logarithm of IC50 (nM).

Here is how some molecules turned out for log10 of IC50.
molecule | target.under.test | reading
Cc1c2c(nn1C)CN(CCN1CCOCC1)S(=O)(=O)CCCn1c(C(=O)O)c(CCCOc3cccc4ccccc34)c3cccc-2c31 (racemic) [Example 1] | MCL-1 (Homo sapiens (Human), UniProt Q07820, K194A/K197A/R201A) | 0.79
CCc1c2c(nn1C)C(CCC1CCOCC1)N(C)S(=O)(=O)CCCn1c(C(=O)O)c(CCCOc3cccc4cc(F)ccc34)c3ccc(Cl)c-2c31 (single isomer, unassigned; enantiomer 4) [Example 64] | MCL-1 (Homo sapiens (Human), UniProt Q07820, K194A/K197A/R201A) | 1.32
CCc1c2c(nn1C)CN(C)S(=O)(=O)CCCn1c(C(=O)O)c(CCCOc3cccc4cc(F)ccc34)c3ccc(Cl)c-2c31 (racemic) [Example 19] | MCL-1 (Homo sapiens (Human), UniProt Q07820, K194A/K197A/R201A) | 0.26
CCc1c2c(nn1C)CN(C1CC1)S(=O)(=O)CCCn1c(C(=O)O)c(CCCOc3cccc4cc(F)ccc34)c3ccc(Cl)c-2c31 (single isomer, unassigned; enantiomer 1) [Example 54] | MCL-1 (Homo sapiens (Human), UniProt Q07820, K194A/K197A/R201A) | -0.19
CCc1c2c(nn1C)C(C)N(C)S(=O)(=O)CCCn1c(C(=O)O)c(CCCOc3cccc4ccccc34)c3cccc-2c31 (racemic) | MCL-1 (Homo sapiens (Human), UniProt Q07820, K194A/K197A/R201A) | 0.89
Cc1c2c(nn1C)C(CCN1CCOCC1)N(C)S(=O)(=O)CCCn1c(C(=O)O)c(CCCOc3cccc4cc(F)ccc34)c3ccc(Cl)c-2c31 (racemic) [Example 65] | MCL-1 (Homo sapiens (Human), UniProt Q07820, K194A/K197A/R201A) | -0.03

# evaluate next
System MCL-1 (Homo sapiens (Human), UniProt Q07820, K194A/K197A/R201A). Read-out log10 of IC50. Item Cc1c2c(nn1C)CN(C1CC1)S(=O)(=O)CCCn1c(C(=O)O)c(CCCOc3cccc4cc(F)ccc34)c3ccc(Cl)c-2c31 (single isomer, unassigned; enantiomer 2) [Example 43] . Report value.
0.79
